The reported measurements were obtained from patent US20060052627A1.

Biological target: UniProt P37231
Sequence (P37231 238-505 limits assumed): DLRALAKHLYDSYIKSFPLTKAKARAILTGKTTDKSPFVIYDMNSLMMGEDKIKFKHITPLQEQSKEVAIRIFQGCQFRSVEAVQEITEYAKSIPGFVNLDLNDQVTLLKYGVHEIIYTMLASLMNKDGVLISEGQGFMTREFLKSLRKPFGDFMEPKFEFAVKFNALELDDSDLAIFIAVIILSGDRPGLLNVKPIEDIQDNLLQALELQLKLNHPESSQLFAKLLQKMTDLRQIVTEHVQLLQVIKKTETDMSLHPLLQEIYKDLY
Assay: Cross-curve PPAR transactivation test (luciferase reporter, HeLN cells), PPARγ
Settings: HeLN cells stably transfected with Gal-hPPARγ; apparent Kd by Schild regression against reference agonist; n.a. means not active; read-out: PPAR gamma Kd app
measured endpoint: Kd
Be sure to follow the number with its unit.

CCCCCCNC(=O)N(CCCc1ccccc1)c1cccc(Sc2ccc(CC(=O)O)cc2)c1 [Example 30b]
2000 nM

Data request: Query (compound): O=C(O)Cc1ccc(Sc2ccc(N(CCc3ccccc3)C(=O)NC3CCCCC3)cc2)cc1 [Example 116b] ; field requested: Kd
Data returned: 500 nM

* * *

Exercise: state measured Kd for each of the compounds provided.
Target: PPARα (Homo sapiens, UniProt Q07869)
Sequence (Q07869 200-468 limits assumed): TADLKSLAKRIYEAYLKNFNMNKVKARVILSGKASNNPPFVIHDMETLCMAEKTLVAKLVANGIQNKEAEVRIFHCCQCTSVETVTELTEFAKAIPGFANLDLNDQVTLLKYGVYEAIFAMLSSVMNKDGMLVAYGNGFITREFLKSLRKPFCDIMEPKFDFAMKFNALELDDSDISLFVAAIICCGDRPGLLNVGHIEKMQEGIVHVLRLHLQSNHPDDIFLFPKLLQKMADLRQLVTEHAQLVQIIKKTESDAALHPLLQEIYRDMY
Experiment: Cross-curve PPAR transactivation test (luciferase reporter, HeLN cells), PPARα
Settings: HeLN cells stably transfected with Gal-hPPARα; apparent Kd by Schild regression against reference agonist; n.a. means not active; read-out: PPAR alpha Kd app
Answers are plain numbers, in µM.

O=C(O)Cc1ccc(Sc2ccc(N(CCc3ccccc3)C(=O)NC3CCCCC3)cc2)cc1 [Example 116b]
0.25

Data request: # input compound: CCCCCCNC(=O)N(CCCc1ccccc1)c1cccc(Sc2ccc(CC(=O)O)cc2)c1 [Example 30b] ; wanted: its Kd
Data returned: 8

* * *

Assignment: determine reported pKd for the given compounds.
Target: PPARδ (Homo sapiens, UniProt Q03181)
Sequence (Q03181 211-441 limits assumed): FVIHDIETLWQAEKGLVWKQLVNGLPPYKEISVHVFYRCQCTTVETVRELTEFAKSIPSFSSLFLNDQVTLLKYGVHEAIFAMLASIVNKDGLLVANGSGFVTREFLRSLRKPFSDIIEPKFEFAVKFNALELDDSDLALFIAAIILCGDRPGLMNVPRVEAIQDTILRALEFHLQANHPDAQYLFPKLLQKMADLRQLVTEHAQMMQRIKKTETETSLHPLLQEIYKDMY
Test: Cross-curve PPAR transactivation test (luciferase reporter, HeLN cells), PPARδ
Conditions: HeLN cells stably transfected with Gal-hPPARδ; apparent Kd by Schild regression against reference agonist; n.a. means not active; read-out: PPAR delta Kd app
Numbers only, as −log10 of the molar value.

Please look at the items below and tell me pKd for each one, in order.
1. CCCCCCNC(=O)N(CCCc1ccccc1)c1cccc(Sc2ccc(CC(=O)O)cc2)c1 [Example 30b]
2. O=C(O)Cc1ccc(Sc2ccc(N(CCc3ccccc3)C(=O)NC3CCCCC3)cc2)cc1 [Example 116b]

Data returned:
6.92
6.92
